Measured melting point, listed per entry for reference.

Consider the reported melting point for these molecules:
| Molecule | Result |
| --- | --- |
| O=C(Nc1ccc(F)cc1F)C1C(=O)N2c3ccccc3Sc3cccc1c32 (stereo not drawn) | 208 to 209 °C |
| CCCCC1=CC(=C(Br)Br)OC1=O | 48 to 49 °C |

Please list melting point recorded for the molecule `CC(C)c1ccc(-n2nnc(-c3ccc(OC(=O)C(C)(C)C)cc3)n2)cc1`
122 to 125 °C

* * *

Measured melting point, listed per entry for reference.

| Compound | melting point |
| --- | --- |
| CN(C)c1ccc(C=O)c(OCC#N)c1 | 124 to 125 °C |
| CC12CCC3C(CCC4CC(O)CCC43C)C1CC=C2c1cccnc1 (stereo not drawn) | 198 to 199 °C |
| O=c1cc(-c2ccccc2)oc2ncc(CN3CCCC3)cc12 | 294 to 296 °C |
| COc1ccc(OCC(O)CNC(C)(C)C)c(-c2ccc(=S)[nH]n2)c1 (stereo not drawn) | 188 to 190 °C |
| COC(=O)c1cncc(-c2ccc(OC)cc2)c1 | 99 to 101 °C |

// next item, melting point requested
Please list melting point recorded for the compound `COc1ccccc1C1=NC(C)(C)CO1`
70 to 72 °C

* * *

Measured melting point, listed per entry for reference.

| Molecule | melting point |
| --- | --- |
| CC(C)([C@H](NC(=O)c1ccccc1)C(=O)N[C@@H](Cc1ccccc1)[C@H](O)CN1C[C@H]2CCCC[C@H]2C[C@H]1C(=O)NCc1ccccc1)S(C)(=O)=O | 212 to 218 °C |

Please list melting point recorded for the molecule CC(=O)OC1CSC(Oc2cncc(-c3ccc(C)c(C)c3)c2)C(OC(C)=O)C1OC(C)=O (stereo not drawn)
131 °C

Please list melting point recorded for the molecule `CCN(C)c1nc2cc(Br)ccn2n1`
109 to 111 °C

Please list melting point recorded for the molecule `COc1ccccc1N1CCN(S(=O)(=O)c2ccc([N+](=O)[O-])cc2)CC1`
202 to 204 °C

Please list melting point recorded for the molecule `CCCCCCCCCCC(=O)N[C@H]1CCCNC(=O)C1`
91 to 92 °C

Please list melting point recorded for the molecule `CCOCc1cc(C(C)(C)C)cc(COCC)c1SSc1c(COCC)cc(C(C)(C)C)cc1COCC`
62 to 63 °C

Please list melting point recorded for the molecule Cc1ccc(S(=O)(=O)OCCC2(C)OCCc3nc(-c4ccccc4)sc32)cc1 (stereo not drawn)
86 to 87 °C

Please list melting point recorded for the molecule `Nc1ccc(CNc2ccccn2)cc1O`
136 to 138 °C

* * *

Measured melting point, listed per entry for reference.

Consider the reported melting point for these compounds:
| Compound | Result |
| --- | --- |
| COc1ccc(C(C#Cc2ccccc2)CC(=O)O)cc1OC1CCCC1 (racemic) | 86 to 88 °C |
| COC(=O)c1ccc2cc(OC)c(OC)cc2c1O | 144 to 145 °C |
| COc1c(NC(=O)c2c(F)cc(F)cc2F)cccc1C(=O)Nc1c(Cl)cc(C(F)(C(F)(F)F)C(F)(F)C(F)(F)F)cc1Br (stereo not given) | 179 °C |

// next item, melting point requested
Please list melting point recorded for the compound `O=C1C=CC(O)(c2ccc3ccccc3c2)C=C1`
137 °C

* * *

Property Label: melting point

Consider the reported melting point for these molecules:
| Molecule | Result |
| --- | --- |
| CC(C)C[C@H](NC(=O)Nc1n[nH]c(=S)s1)C(=O)NCc1ccccc1 | 206 to 208 °C |
| Nc1ccc(OCCn2ccnc2)cc1 | 91 to 92 °C |

Please list melting point recorded for the molecule `O=c1cnc2c([nH]1)-c1ccccc1C2=NO`
> 300 °C

Please list melting point recorded for the molecule Cc1ccc(C2CC(N)=NN2c2ccccc2)cc1 (configuration not stated)
165 to 166 °C

Please list melting point recorded for the molecule `O=C1OCc2c(c3cc(-c4ccc(Cl)cc4)ccc3n2Cc2ccccc2)C1=O`
263 to 264 °C

Please list melting point recorded for the molecule `Cc1cc(C(=O)Nc2cc(-c3c(-c4ccc(F)c(C)c4)nc4cccnn34)ccn2)cc(Cl)n1`
298 to 300 °C

Please list melting point recorded for the molecule `c1ccc(COc2cccc3cc(C4=NCCS4)[nH]c23)cc1`
129 to 130 °C

Please list melting point recorded for the molecule NC(c1ccco1)P(O)O (configuration not stated)
221 °C

Please list melting point recorded for the molecule `O=C(O)CCN1CCN(c2ccc(F)cc2)CC1`
178 to 180 °C

Please list melting point recorded for the molecule `COc1c2c(cc3ccc(OC(C)=O)cc13)-c1ccc(OC(C)=O)cc1CO2`
165 to 167 °C

Please list melting point recorded for the molecule `O=C(O)C(O)=CC(=O)c1cn(Cc2ccccc2)c(=O)n(Cc2ccccc2)c1=O`
186 to 188 °C

Please list melting point recorded for the molecule `CCC[C@H]1CC[C@H]([C@H]2CC[C@H](c3ccc(C#N)cc3)CC2)CC1`
55 °C

* * *

Measured melting point, listed per entry for reference.

Consider the reported melting point for these compounds:
| Compound | melting point |
| --- | --- |
| CC(=O)C(C(=O)Nc1ccccc1)C(C)C (stereo not drawn) | 135 to 137 °C |
| Cc1ccc(CNc2cccc3c2CN(C2CCC(=O)NC2=O)C3=O)o1 (stereo not drawn) | 242 to 244 °C |
| Cn1nc(CCc2ccncc2)c2c(=O)n(-c3ccccc3)c3ncccc3c21 | 285 to 286 °C |
| CC1(C)C(=O)N(c2ccc(N)c(C(F)(F)F)c2)C(=O)N1CCCCCN1C(=O)N(c2ccc(N)c(C(F)(F)F)c2)C(=O)C1(C)C | 108 to 109 °C |
| CC1(C)C=C(N2CCNCC2=O)c2cnccc2O1 | 109 to 110 °C |

Please list melting point recorded for the compound `Cc1nnc(-c2cc(O)c(O)c([N+](=O)[O-])c2)o1`
245 to 246 °C

Please list melting point recorded for the compound `O=C(O)c1ccc(C(=O)N2CCN(C(=O)N3CCOCC3)CC2)cc1`
203 to 205 °C

Please list melting point recorded for the compound CCCN(c1nc(-c2ccc(Cl)cc2Cl)c(C)s1)C(c1ccccc1)C1CC1 (stereo not drawn)
78 to 81 °C

Please list melting point recorded for the compound `Cc1ccnn1-c1ccc(Cl)c(Cl)c1`
46 to 47 °C

Please list melting point recorded for the compound `COc1ccc(Nc2nc(N)nc3[nH]c4ccccc4c23)cc1`
209 °C

Please list melting point recorded for the compound `CC(C)(C(N)=O)c1ccc2nc(-c3ccncc3)[nH]c2c1`
274 to 276 °C

Please list melting point recorded for the compound O=Cc1ccc2c(c1)S(=O)c1ccccc1C=C2 (stereo not drawn)
188 to 190 °C

Please list melting point recorded for the compound `O=c1cc[nH]c2nc(-c3ccncc3)ncc12`
> 350 °C

Please list melting point recorded for the compound CC12CC(=O)C3C(CCC4CC=CCC43C)C1CCC2=O (stereo not drawn)
188 to 192 °C

Please list melting point recorded for the compound CC(C)(C)C(NC(=O)c1ccc(Cl)cc1)NC(=NC#N)Nc1cc(F)ccc1F (stereo not drawn)
196 to 198 °C

Please list melting point recorded for the compound `CCOC(=O)NC(=O)CN(C)C(=O)c1c(F)ccc2c(C(F)(F)F)c(OC)ccc12`
130 to 132 °C

Please list melting point recorded for the compound `COc1ccc(-c2c3ccccc3cc3sc4ccccc4c23)cc1I`
274 to 275 °C

* * *

Measured melting point, listed per entry for reference.

| Compound | melting point |
| --- | --- |
| Cc1c(-c2ccc(C3CCCCC3)cc2)nc2ccc(F)cc2c1C(=O)O | 316 to 323 °C |
| COc1cc2oc(=O)c3c(c2cc1OC)CCN(CC(C)=O)C3 | 168 to 172 °C |
| Cc1cc(Br)cnc1CCCCNC1=NS(=O)(=O)c2cc(-c3ccccn3)ccc21 | 233 to 234 °C |
| CC(CN(C)C)N1c2ccccc2Sc2ccc(C(=O)NCc3ccccc3F)cc21 (racemic) | 130 °C |
| Cc1cccc(C)c1C(=O)c1sc(Nc2ccc(N3CCOCC3)cc2)nc1N | 221 to 223 °C |

Please list melting point recorded for the compound `Cc1nc2cc(NC(=O)c3cc4cc(F)ccc4n3Cc3cccc(F)c3)cnc2n1C`
274 to 275 °C

Please list melting point recorded for the compound CN(CC1CCc2c(cccc2OCC(=O)O)C1)c1cnc(-c2ccccc2)c(-c2ccccc2)n1 (stereo not drawn)
212 to 213 °C

Please list melting point recorded for the compound `C1=Cc2ccccc2ON1`
134 to 136 °C

* * *

Property Label: melting point

| Compound | melting point |
| --- | --- |
| CCCOc1ccccc1-c1nc2c(C(N)=O)cccc2c(=O)[nH]1 | 226 to 227 °C |
| Cc1cccc(NC(=O)Nc2nnc(C(F)(F)F)s2)c1 | 255 to 257 °C |
| Cc1nc(C(F)F)c(C(=O)Nc2ccccc2-c2ccc(Br)cc2)s1 | 151 °C |
| CC(O)C1CCC2C3C=CC4=CC(=O)C5OC5C4(C)C3CCC12C (centres undefined) | 206 to 207 °C |
| BrC(Br)c1nc(C(Br)Br)nc(C(Br)Br)n1 | 130 to 131 °C |

Please list melting point recorded for the compound `NC(=O)c1sc2ccc(Br)cc2c1-c1ccccc1`
201 to 202 °C

Please list melting point recorded for the compound CN1CCN(CCOc2cccc3c2c2cccc4c2n3C(c2ccccc2)CO4)CC1 (centres undefined)
57 °C

Please list melting point recorded for the compound `O=C(O)C(=O)c1ccc(OCCCn2c(=O)ccc3ccccc32)cc1`
183 to 186 °C

Please list melting point recorded for the compound `c1cc2sc(C3OCCO3)cc2s1`
88 to 90 °C
